Please go through the items and note down their viability, T/C.
test system: KRAS-mutant PDC multicell tumor spheroid viability; experiment: Anticancer human tumor 521955-158-R2-J5-PDC patient-derived pancreatic carcinoma cell line growth inhibition [KRAS2]; conditions: second compound 3.16 µM; first compound 0.00316 µM; hits give low values;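 note: viability read after seven days of drug exposure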
Answers are plain numbers, in %.

Would you please look over these solved cases?
COMPOUND	viability, T/C / %
CC(=O)Nc1cccc(-n2c(=O)n(C3CC3)c(=O)c3c(Nc4ccc(I)cc4F)n(C)c(=O)c(C)c32)c1 + C=CC(=O)N1CCN(c2nc(OCC3CCCN3C)nc3c2CCN(c2cccc4cccc(C)c24)C3)CC1CC#N	1.92
Cn1ncnc1[C@H]1c2n[nH]c(=O)c3cc(F)cc(c23)N[C@@H]1c1ccc(F)cc1 + C=CC(=O)N1CCN(c2nc(=O)n(-c3c(C)ccnc3C(C)C)c3nc(-c4c(O)cccc4F)c(F)cc23)C(C)C1	97.7
CCN1CCN(Cc2ccc(Nc3ncc(F)c(-c4cc(F)c5nc(C)n(C(C)C)c5c4)n3)nc2)CC1 + COc1cc2nc(C)nc(NC(C)c3cc(N)cc(C(F)(F)F)c3)c2cc1OC1CCOC1	90.5
CC(C)n1nc(-c2ccc3oc(N)nc3c2)c2c(N)ncnc21 + COc1cc2nc(C)nc(NC(C)c3cc(N)cc(C(F)(F)F)c3)c2cc1OC1CCOC1	53.7
CN(C)C/C=C/C(=O)Nc1cc2c(Nc3ccc(F)c(Cl)c3)ncnc2cc1O[C@H]1CCOC1 + C=CC(=O)N1CCN(c2nc(=O)n(-c3c(C)ccnc3C(C)C)c3nc(-c4c(O)cccc4F)c(F)cc23)C(C)C1	89.5
CCN1CCN(Cc2ccc(Nc3ncc(F)c(-c4cc(F)c5nc(C)n(C(C)C)c5c4)n3)nc2)CC1 + C=CC(=O)N1CCN(c2nc(OCC3CCCN3C)nc3c2CCN(c2cccc4cccc(C)c24)C3)CC1CC#N	19.2
CC(=O)Nc1cccc(-n2c(=O)n(C3CC3)c(=O)c3c(Nc4ccc(I)cc4F)n(C)c(=O)c(C)c32)c1 + C=CC(=O)N1CCN(c2nc(=O)n(-c3c(C)ccnc3C(C)C)c3nc(-c4c(O)cccc4F)c(F)cc23)C(C)C1	33.5
CC(=O)Nc1cccc(-n2c(=O)n(C3CC3)c(=O)c3c(Nc4ccc(I)cc4F)n(C)c(=O)c(C)c32)c1 + COc1cc2nc(C)nc(NC(C)c3cc(N)cc(C(F)(F)F)c3)c2cc1OC1CCOC1	21.8

Reported viability, T/C, compound Cn1ncnc1[C@H]1c2n[nH]c(=O)c3cc(F)cc(c23)N[C@@H]1c1ccc(F)cc1 + C=CC(=O)N1CCN(c2nc(OCC3CCCN3C)nc3c2CCN(c2cccc4cccc(C)c24)C3)CC1CC#N : ____ 10.7
